Value source: ChEMBL document CHEMBL3351271

I'd be grateful if you could share measured pIC50 for these entries.
System: HEK293
Assay: Cytotoxicity against HEK293 cells after 48 hrs by MTT assay
Format: cell-based
Settings: Homo sapiens, HEK293, 48 h
Friendly reminder that pIC50 comes from taking -log10 of the concentration in mol/L.

Quote HEK293 pIC50 for entry CC(C)Oc1ccc(C2CN(C)[C@]3(C(=O)Nc4ccccc43)[C@]23NC(=S)N(c2ccc(F)c(Cl)c2)C3=O)cc1 (stereo partly drawn) .
4.87

State recorded pIC50 with HEK293, entry CCc1ccc(C2CN(C)[C@]3(C(=O)Nc4ccccc43)[C@]23NC(=S)N(c2ccc(F)c(Cl)c2)C3=O)cc1 (stereo partly drawn) , no comment.
4.90

Answer with pIC50 of CCc1ccc(C2CN(C)[C@]3(C(=O)Nc4ccc(Br)cc43)[C@]23NC(=S)N(c2ccc(F)c(Cl)c2)C3=O)cc1 (stereo partly drawn) measured for HEK293.
4.81

Write down measured pIC50 (HEK293) for this compound. CN1CC(c2ccc(Cl)cc2)[C@@]2(NC(=S)N(c3ccc(F)c(Cl)c3)C2=O)[C@@]12C(=O)Nc1ccccc12 (stereo partly drawn)
5.25

GET pIC50 where system = HEK293 and item = CC(C)Oc1ccc(C2CN(C)[C@]3(C(=O)Nc4ccc(Br)cc43)[C@]23NC(=S)N(c2ccc(F)c(Cl)c2)C3=O)cc1 (stereo partly drawn)
4.80

Report pIC50 from HEK293 testing of CCOc1ccc(N2C(=O)[C@@]3(NC2=S)C(c2ccc(Cl)cc2)CN(C)[C@]32C(=O)Nc3ccccc32)cc1 (stereo partly drawn)
5.04

Write pIC50 of CCOc1ccc(N2C(=O)[C@@]3(NC2=S)C(c2ccc(Cl)cc2)CN(C)[C@]32C(=O)Nc3ccc(Br)cc32)cc1 (stereo partly drawn) ; system used: HEK293
4.54

Report pIC50 under test system HEK293 for CN1CC(c2ccc(Cl)cc2)[C@@]2(NC(=S)N(c3ccc(F)c(Cl)c3)C2=O)[C@@]12C(=O)Nc1ccc(Br)cc12 (stereo partly drawn) .
4.99

* * *

Target: Tumour suppressor p53/oncoprotein Mdm2 (Homo sapiens, UniProt Q00987)
Sequence (P04637 whole entry): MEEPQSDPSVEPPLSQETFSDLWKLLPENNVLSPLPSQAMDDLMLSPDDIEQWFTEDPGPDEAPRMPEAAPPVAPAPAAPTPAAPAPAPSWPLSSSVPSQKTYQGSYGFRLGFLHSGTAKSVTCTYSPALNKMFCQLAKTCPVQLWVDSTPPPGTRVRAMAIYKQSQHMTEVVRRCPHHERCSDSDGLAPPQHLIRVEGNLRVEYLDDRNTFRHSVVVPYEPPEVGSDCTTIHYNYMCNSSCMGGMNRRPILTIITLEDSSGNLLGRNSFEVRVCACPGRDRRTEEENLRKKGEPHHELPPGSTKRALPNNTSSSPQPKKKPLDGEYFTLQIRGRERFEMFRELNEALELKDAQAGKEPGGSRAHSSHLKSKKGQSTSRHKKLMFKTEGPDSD
Sequence (Q00987 whole entry): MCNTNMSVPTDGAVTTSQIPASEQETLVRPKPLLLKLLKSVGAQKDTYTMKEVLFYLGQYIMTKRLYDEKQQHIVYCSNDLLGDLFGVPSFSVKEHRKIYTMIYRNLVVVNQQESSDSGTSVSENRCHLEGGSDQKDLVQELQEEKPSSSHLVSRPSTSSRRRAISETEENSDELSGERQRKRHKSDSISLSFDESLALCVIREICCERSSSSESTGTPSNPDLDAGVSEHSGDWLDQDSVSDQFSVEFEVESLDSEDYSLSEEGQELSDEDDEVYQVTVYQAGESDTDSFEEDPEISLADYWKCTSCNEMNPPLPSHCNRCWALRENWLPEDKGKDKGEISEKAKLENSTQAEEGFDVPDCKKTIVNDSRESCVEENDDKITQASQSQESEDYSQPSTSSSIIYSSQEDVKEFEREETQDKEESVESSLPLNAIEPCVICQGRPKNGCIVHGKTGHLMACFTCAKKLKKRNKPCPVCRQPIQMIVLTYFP
Assay: Inhibition of MDM2/P53 (unknown origin) protein interaction by fluorescent polarization assay
metric: Ki (nM)
Answer format: numeric, nM implied, no suffix.

Read the entry CC(C)CC(N/C(C(=O)NCc1ccccc1)=C1\C(C(=O)NO)=Nc2cc(Cl)ccc21)C(=O)NO (stereo unspecified) and write its reported Ki.
900
